Assay: Primary qHTS for delayed death inhibitors of the malarial parasite plastid, 48 hour incubation
Conditions: P. falciparum luciferase growth in erythrocytes; series mostly up to 28.7 µM
About 18,000 (5.8%) of roughly 310,000 compounds were called active. Inconclusive results (about 22%) are left out. Calls come from the whole dose curve; as a rule, active = well fitted inhibition curve with a large enough effect; inconclusive = small, poorly fitted or top-dose-only effect, or another doubt; inactive = no such curve, though single readings can be large or run the other way. The sample holds actives, similar compounds and a random draw of the others, so the mix is not that of the screen.
Classes to choose from: Yes = active, No = inactive

### Prompt Hello, I am checking results. What call was entered for O=C(CN1CCOCC1)Nc1cc(Cl)ccc1Cl ?
### Response No

### Prompt Could you do the same for CCN(CC)c1ccc(C2C3CCCCC3(O)CCN2CC(=O)Nc2ccccc2)cc1 (stereo not given) , please?
### Response No

### Prompt Could you do the same for O=C(NCc1ccc(Cl)cc1)C1CCN(S(=O)(=O)c2cccs2)CC1 , please?
### Response No

### Prompt Could you do the same for O=C(NCc1ccc2c(c1)OCO2)c1cc(F)c(F)cc1Cl , please?
### Response No

### Prompt Could you do the same for CC(C)[C@@H](C(=O)O)N(Cc1cccc(CN([C@H](C(=O)O)C(C)C)S(C)(=O)=O)c1)S(C)(=O)=O , please?
### Response No
